So I've got a bunch of compounds here, and I need their melting point values.

Guide cases for melting point, answers given:
COCCc1nc2c(N)nc3ccccc3c2n1CCOCCNS(=O)(=O)c1cccc(S(=O)(=O)NCCOCCn2c(CCOC)nc3c(N)nc4ccccc4c32)c1 ... 115 to 120 °C
CCCCc1nc2c(N)nc3ccccc3c2n1CCCCNC(=O)N[C@H]1CC[C@H](NC(=O)NCCCCn2c(CCCC)nc3c(N)nc4ccccc4c32)CC1 ... 184.5 to 188.8 °C
CCCCc1nc2c(N)nc3ccccc3c2n1CCCCNC(=O)NCCCCn1c(CCCC)nc2c(N)nc3ccccc3c21 ... 218.1 to 219.7 °C
CCCCc1nc2c(N)nc3ccccc3c2n1CCCCNC(=O)Nc1ccc(Oc2ccc(NC(=O)NCCCCn3c(CCCC)nc4c(N)nc5ccccc5c43)cc2)cc1 ... 152.1 to 156.1 °C
CCOCc1nc2c(N)nc3ccccc3c2n1CCCCCCCCCCn1c(COCC)nc2c(N)nc3ccccc3c21 ... 237 to 238 °C
CCCCc1nc2c(N)nc3ccccc3c2n1CCCCNC(=O)Nc1cccc(NC(=O)NCCCCn2c(CCCC)nc3c(N)nc4ccccc4c32)c1 ... 160.3 to 165.6 °C

Now for another entry.
Query block: Please report the recorded melting point for COCCc1nc2c(N)nc3ccccc3c2n1CCOCCNC(=O)NCCCCCCCCNC(=O)NCCOCCn1c(CCOC)nc2c(N)nc3ccccc3c21 .
Result block: 172.5 to 177 °C
